test: qHTS Assay for Lipid Storage Modulators: 3T3L1 Assay against Probe and Analogs; conditions: 3T3-L1 lipid droplets, BODIPY imaging, oleic acid, 18-24 h; series mostly up to 46.1 µM
Inconclusive results are not listed. Activity calls are given as the source filed them. Calls follow the shape of the dose curve; as a rule, active = well fitted inhibition curve with a large enough effect; inconclusive = small, poorly fitted or top-dose-only effect; inactive = no such curve, though single readings can be large or run the other way.
Permitted responses: active, inactive

Data request: // return assay outcome for CCOc1ccc(CCNC(=O)c2ccc(Oc3ccccc3)cc2)cc1OCC
Data returned: active

Data request: // return assay outcome for CCOc1ccc(CCNC(=O)c2cc3ncccc3n2Cc2cccc(C)n2)cc1OCC
Data returned: inactive

Data request: // return assay outcome for CCOc1ccc(CCNC(=O)c2ccccc2)cc1OCC
Data returned: active

Data request: // return assay outcome for CCOc1ccc(CCNC(=O)c2cc3sccc3n2Cc2ccc(F)cc2F)cc1OCC
Data returned: active
